Task for the reader: assign each of the following compounds its reported IC50.
Target: Carbonic anhydrase 2 (Homo sapiens, UniProt P00918)
Give your result in nM as a bare value.

Fill in the recorded IC50 for this compound, with Carbonic anhydrase 2 (Homo sapiens, UniProt P00918) as test system: CCN(CC)C1CCS(=O)(=O)c2sc(S(N)(=O)=O)cc21.Cl (stereo not given)
70

Same question, CCCCNC1CCS(=O)(=O)c2sc(S(N)(=O)=O)cc21.Cl (stereo not given) this time
12.4

Same question, CNC1CCS(=O)(=O)c2sc(S(N)(=O)=O)cc21.Cl (stereo not given) this time
13.9

Same question, CCCNC1CCS(=O)(=O)c2sc(S(N)(=O)=O)cc21.Cl (stereo not given) this time
9.2

Same question, Cl.NC1CCS(=O)(=O)c2sc(S(N)(=O)=O)cc21 (stereo not given) this time
9.2
